Test system: influenza A virus minigenome (PB2, PB1, PA, NP; luciferase reporter) in 293T cells, RNP_Alaska
PROCEDURE_SUMMARY: microbe, parasite or virus in culture
Assay type: cell-based
CONDITION_SUMMARY: HEK-293T, 48 h
pEC50: −log10 of the molar value.
Quick list: pEC50 per entry.

Observe how each entry below is paired with its result.
>  <GIVEN_SMILES>
COc1c2n(ncc1=O)[C@@H]([C@H](c1ccccc1)c1cccc(F)c1F)[C@H]1CCCN1C2=O

>  <pEC50>
≤ 6.00

$$$$
>  <GIVEN_SMILES>
O=C1c2c(O)c(=O)cnn2[C@@H]([C@@H](c2ccc(F)cc2)c2ccc(OC(F)(F)F)cc2)[C@H]2CCCN12

>  <pEC50>
6.00 to 7.00

$$$$
>  <GIVEN_SMILES>
CN(C)C(=O)OCOc1c2n(ncc1=O)[C@@H]([C@H](c1cccc(F)c1)c1cccc(F)c1F)[C@H]1CCCN1C2=O

>  <pEC50>
≤ 6.00

$$$$

*Q* Please list pEC50 recorded for the compound CCN(CC)C(=O)Oc1c2n(ncc1=O)[C@@H]([C@H](c1ccccc1)c1cccc(F)c1F)[C@H]1CCCN1C2=O
*A* 6.00 to 7.00

---

Quick list: pEC50 per entry.
System: influenza A virus minigenome (PB2, PB1, PA, NP; luciferase reporter) in 293T cells, RNP_Alaska
PROCEDURE_SUMMARY: microbe, parasite or virus in culture
Format: cell-based
CONDITION_SUMMARY: HEK-293T, 48 h
pEC50: −log10 of the molar value.

Observe how each entry below is paired with its result.
>  <COMPOUND>
O=C(Oc1c2n(ncc1=O)[C@@H]([C@H](c1cccc(F)c1)c1cccc(F)c1F)[C@H]1CCCN1C2=O)N1CCCCC1 [Example 98]

>  <pEC50>
≤ 6.00

$$$$
>  <COMPOUND>
Cc1c([C@@H](c2cccc(F)c2)[C@H]2[C@H]3CCCN3C(=O)c3c(O)c(=O)cnn32)ccc(F)c1F [Example 11]

>  <pEC50>
> 7.00

$$$$
>  <COMPOUND>
CC(C)(C)C(=O)OCOc1c2n(ncc1=O)[C@@H]([C@H](c1cccc(F)c1)c1cccc(F)c1F)[C@H]1CCCN1C2=O [Example 109]

>  <pEC50>
> 7.00

$$$$
>  <COMPOUND>
COC(C)(C)CC(=O)Oc1c2n(ncc1=O)[C@@H]([C@H](c1ccccc1)c1cccc(F)c1F)[C@H]1CCCN1C2=O [Example 39]

>  <pEC50>
> 7.00

$$$$

*Q* Please list pEC50 recorded for the compound CCC(=O)OCOc1c2n(ncc1=O)[C@@H]([C@H](c1ccccc1)c1cccc(F)c1F)[C@H]1CCCN1C2=O [Example 77]
*A* > 7.00

*Q* Please list pEC50 recorded for the compound COCCC(=O)Oc1c2n(ncc1=O)[C@@H]([C@H](c1ccccc1)c1cccc(F)c1F)[C@H]1CCCN1C2=O [Example 61]
*A* > 7.00

*Q* Please list pEC50 recorded for the compound O=C(Oc1c2n(ncc1=O)[C@@H]([C@H](c1ccccc1)c1cccc(F)c1F)[C@H]1CCCN1C2=O)N1CCOCC1 [Example 66]
*A* ≤ 6.00

*Q* Please list pEC50 recorded for the compound COC(=O)Oc1c2n(ncc1=O)[C@@H]([C@H](c1ccccc1)c1cccc(F)c1F)[C@H]1CCCN1C2=O [Example 54]
*A* > 7.00

*Q* Please list pEC50 recorded for the compound COCCOC(=O)Oc1c2n(ncc1=O)[C@@H]([C@H](c1cccc(F)c1)c1cccc(F)c1F)[C@H]1CCCN1C2=O [Example 97]
*A* > 7.00

*Q* Please list pEC50 recorded for the compound CN1CCN(C(=O)OCOc2c3n(ncc2=O)[C@@H]([C@H](c2ccccc2)c2cccc(F)c2F)[C@H]2CCCN2C3=O)CC1 [Example 36]
*A* ≤ 6.00

*Q* Please list pEC50 recorded for the compound COC(=O)OCOc1c2n(ncc1=O)[C@@H]([C@H](c1cccc(F)c1)c1ccc(F)c(F)c1)[C@H]1CCCN1C2=O [Example 45]
*A* > 7.00

*Q* Please list pEC50 recorded for the compound CC(C)CC(=O)Oc1c2n(ncc1=O)[C@@H]([C@H](c1ccc(F)cc1)c1cccc(F)c1F)[C@H]1CCCN1C2=O [Example 93]
*A* > 7.00

*Q* Please list pEC50 recorded for the compound O=C(Oc1c2n(ncc1=O)[C@@H]([C@H](c1ccccc1)c1cccc(F)c1F)[C@H]1CCCN1C2=O)N1CCC(N2CCCCC2)CC1 [Example 65]
*A* ≤ 6.00

---

Tested on: influenza A virus minigenome (PB2, PB1, PA, NP; luciferase reporter) in 293T cells, RNP_Hubei
PROCEDURE_SUMMARY: microbe, parasite or virus in culture
Format: cell-based
CONDITION_SUMMARY: HEK-293T, 48 h
pEC50: −log10 of the molar value.
METRIC: pEC50

>  <GIVEN_SMILES>
O=C1c2c(O)c(=O)cnn2[C@@H]([C@H](c2ccc(F)cc2)c2ccc(OC(F)(F)F)cc2)[C@H]2CCCN12

>  <pEC50>
6.00 to 7.00

$$$$
>  <GIVEN_SMILES>
CC(C)OC(=O)Oc1c2n(ncc1=O)[C@@H]([C@H](c1ccc(F)cc1)c1cccc(F)c1F)[C@H]1CCCN1C2=O

>  <pEC50>
> 7.00

$$$$
>  <GIVEN_SMILES>
CC(C)(C)OC(=O)Oc1c2n(ncc1=O)[C@@H]([C@H](c1ccccc1)c1cccc(F)c1F)[C@H]1CCCN1C2=O

>  <pEC50>
> 7.00

$$$$

*Q* Please list pEC50 recorded for the compound COC(C)(C)CC(=O)Oc1c2n(ncc1=O)[C@@H]([C@H](c1ccccc1)c1cccc(F)c1F)[C@H]1CCCN1C2=O
*A* > 7.00

---

Test system: influenza A virus minigenome (PB2, PB1, PA, NP; luciferase reporter) in 293T cells, RNP_Alaska
PROCEDURE_SUMMARY: microbe, parasite or virus in culture
Assay type: cell-based
CONDITION_SUMMARY: HEK-293T, 48 h
Quick list: EC50 per entry.

Observe how each entry below is paired with its result.
>  <COMPOUND>
CCOC(=O)OC(C)Oc1c2n(ncc1=O)[C@@H]([C@H](c1ccccc1)c1cccc(F)c1F)[C@H]1CCCN1C2=O (stereo partly drawn)

>  <EC50>
100 to 1000 nM

$$$$
>  <COMPOUND>
CCN(C)C(=O)OCOc1c2n(ncc1=O)[C@@H]([C@H](c1ccccc1)c1cccc(F)c1F)[C@H]1CCCN1C2=O

>  <EC50>
≥ 1000 nM

$$$$
>  <COMPOUND>
COCCOC(=O)OCOc1c2n(ncc1=O)[C@@H]([C@H](c1cccc(F)c1)c1cccc(F)c1F)[C@H]1CCCN1C2=O

>  <EC50>
< 100 nM

$$$$
>  <COMPOUND>
CC(C)C(=O)Oc1c2n(ncc1=O)[C@@H]([C@H](c1cccc(F)c1)c1cccc(F)c1F)[C@H]1CCCN1C2=O

>  <EC50>
< 100 nM

$$$$
>  <COMPOUND>
COc1cccc([C@H](c2ccc(F)cc2)[C@H]2[C@H]3CCCN3C(=O)c3c(O)c(=O)cnn32)c1

>  <EC50>
100 to 1000 nM

$$$$
>  <COMPOUND>
CC(=O)Oc1c2n(ncc1=O)[C@@H]([C@H](c1ccc(F)cc1)c1cccc(F)c1F)[C@H]1CCCN1C2=O

>  <EC50>
< 100 nM

$$$$

*Q* Please list EC50 recorded for the compound COc1ccc([C@H](c2ccc(F)cc2)[C@H]2[C@H]3CCCN3C(=O)c3c(O)c(=O)cnn32)cc1
*A* 100 to 1000 nM

*Q* Please list EC50 recorded for the compound CC(C)C(=O)Oc1c2n(ncc1=O)[C@@H]([C@H](c1ccc(F)cc1)c1cccc(F)c1F)[C@H]1CCCN1C2=O
*A* < 100 nM

*Q* Please list EC50 recorded for the compound CCC(=O)Oc1c2n(ncc1=O)[C@@H]([C@H](c1cccc(F)c1)c1cccc(F)c1F)[C@H]1CCCN1C2=O
*A* < 100 nM

*Q* Please list EC50 recorded for the compound CC(C)(C)OC(=O)OCOc1c2n(ncc1=O)[C@@H]([C@H](c1ccccc1)c1cccc(F)c1F)[C@H]1CCCN1C2=O
*A* 100 to 1000 nM

*Q* Please list EC50 recorded for the compound CC(=O)Oc1c2n(ncc1=O)[C@@H]([C@H](c1cccc(F)c1)c1cccc(F)c1F)[C@H]1CCCN1C2=O
*A* < 100 nM

*Q* Please list EC50 recorded for the compound COC(=O)c1ccccc1C(=O)Oc1c2n(ncc1=O)[C@@H]([C@H](c1ccccc1)c1cccc(F)c1F)[C@H]1CCCN1C2=O
*A* < 100 nM

*Q* Please list EC50 recorded for the compound O=C1c2c(O)c(=O)cnn2[C@@H]([C@@H](c2ccc(F)cc2)c2cccc(OC(F)(F)F)c2)[C@H]2CCCN12
*A* 100 to 1000 nM

*Q* Please list EC50 recorded for the compound COC(=O)C(C)(C)OC(=O)OCOc1c2n(ncc1=O)[C@@H]([C@H](c1cccc(F)c1)c1cccc(F)c1F)[C@H]1CCCN1C2=O
*A* 100 to 1000 nM

*Q* Please list EC50 recorded for the compound COCCOC(=O)OCOc1c2n(ncc1=O)[C@@H]([C@H](c1ccccc1)c1cccc(F)c1F)[C@H]1CCCN1C2=O
*A* ≥ 1000 nM

*Q* Please list EC50 recorded for the compound Cc1oc(=O)oc1COc1c2n(ncc1=O)[C@@H]([C@H](c1cccc(F)c1)c1cccc(F)c1F)[C@H]1CCCN1C2=O
*A* < 100 nM
